# test-summary: StAR promoter reporter inhibitors, counter-screen for LRH-1 inverse agonist project, cell-based, luminescence, high throughput (AID 651611)
# experimental-conditions: StAR promoter luciferase reporter counterscreen, at 3.6 µM, hits give high values
Decision: inhibition compared against 20%; not below it gives y, below it gives n.

| compound | classification |
| --- | --- |
| CCOc1ccc(CCNC(=O)CN2C(=O)NC3(CCc4ccccc43)C2=O)cc1OCC (stereo not given) | n |
| C=CC(=O)Nc1cccc(Oc2ncnc3[nH]cc(-c4cnc5ccccc5c4)c23)c1 | y |
| COc1ccc(CC(N)c2csc(Nc3ncccn3)n2)cc1 (stereo not given) | y |
| O=C(CCCN1C(=O)/C(=C/c2ccccc2Cl)SC1=S)NNC(=O)c1ccccc1Cl | y |
| COc1cc(OC)cc(-c2oc3cccnc3c2C#CCCO)c1 | n |
| COc1ccc(NC(=O)CSc2nc(O)cc(=O)n2-c2ccccc2OC)cc1 | n |
| O=C(NC(Nc1nc2ccc([N+](=O)[O-])cc2s1)(C(F)(F)F)C(F)(F)F)c1ccccc1Cl | y |
| Cc1cccc(NC(=O)c2ccc([N+](=O)[O-])o2)c1 | y |

### Prompt Hi team, for O=C(Nc1cccc(S(=O)(=O)N2CCCCC2)c1)c1ccc([N+](=O)[O-])o1 , is the recorded inhibition at or above 20%?
### Response y

### Prompt And for c1ccc(CCNc2nc(-c3ccccn3)nc3ccccc23)cc1 ?
### Response y

###

Could you please report measured inhibition for the items listed next?
# target-under-test: Nuclear receptor subfamily 5 group A member 2 (Homo sapiens)
# test-summary: LRH-1 (NR5A2) inverse agonists, retest, confirmation, cell-based, luminescence (AID 651613);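 note: HEK293T cells co-transfected with LRH-1 and StAR promoter luciferase reporter; 0% = vehicle wells and 100% = parental cells lacking receptor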
# experimental-conditions: cell-based LRH-1 luciferase reporter, inverse agonism; at 3.6 µM; hits give high values
Give bare numbers, in %.

The cases that follow already have their inhibition on record.
| molecule | inhibition [%] |
| --- | --- |
| Cc1ccc(-c2nn3c(C)nnc3s2)cc1NC(=O)c1cccs1 | 67.5 |
| O=C(COC(=O)c1ccc(Br)cc1)Nc1ccccc1Br | 50.5 |
| CC(=O)Nc1sc2c(c1-c1nc3ccccc3s1)CN(C(C)C)CC2 | 66.4 |
| Cc1ccc(/C=C/c2ccc(N(C)C)cc2)[n+](C)c1 | 78.5 |
| O=C(CSc1n[nH]c(-c2ccccc2)n1)Nc1ccc(N2CCOCC2)cc1 | 56.6 |

# next molecule below
### Prompt Name the recorded inhibition for COc1ccc(CCNC(=O)CSC2=Nc3ccccc3C3=NC(C(C)C)C(=O)N23)cc1OC (stereo unspecified) .
### Response 62.3

###

Hi there, I'd appreciate the recorded activation for every entry that follows.
# Tested on: HIV-1 integrase (multimerization)
# test-summary: HIV-1 IN multimer formation enhancers, counter-screen for LEDGF/p75 integration inhibitor project, biochemical, TR-FRET (AID 1053131)
# experimental-conditions: TR-FRET HIV-1 integrase multimerization, at 7.7 µM, hits give high values
This is one part of the list.
Give bare numbers, in %.

| compound | units-label | activation |
| --- | --- | --- |
| COc1ccc(NC(=O)C(NC(C)=O)C(=O)NCc2ccccc2Cl)cc1 (stereo unspecified) | % | -0.36 |
| O=C(c1cccc(C(F)(F)F)c1)N1CC[C@H]2[C@H](CCCN2Cc2cc(F)cc(F)c2)C1 | % | 0.05 |
| Cc1cc(=O)oc2c3c(cc(OCC(=O)N[C@H](C(=O)O)c4ccccc4)c12)OC(C)(C)CC3 | % | -0.04 |
| COc1cc(-c2nnc(NC(=O)CS(=O)(=O)c3ccc(Cl)cc3)o2)cc(OC)c1OC | % | 0.46 |
| Oc1cccc(/C=N/Nc2ccc(Cl)nn2)c1O | % | 10.1 |

// for each compound below, give its activation
1. Cc1oc2c(c1C(=O)N1CCOCC1)C(=O)c1ccccc1C2=O
2. COc1cc(NC(=O)COC(=O)c2ccc([N+](=O)[O-])s2)cc(OC)c1OC
3. CCOC(=O)c1c(C)oc2cc(Sc3ccccc3)c(O)c(O)c12

### Response
1: -2.24; 2: -0.28; 3: 0.78

# batch size: 3; output activation per entry
1. Cc1cc(Oc2ccc(Cl)cc2)nc(SCC(=O)c2ccccc2)n1
2. O=C(CN(C(=O)c1csnn1)c1cccc(Cl)c1)NC1CCCC1
3. CCN(CC)CCOc1ccc2c(c1)C(=NNC(=O)c1ccccn1)c1cc(OCCN(CC)CC)ccc1-2

### Response
-0.31
-0.52
2.34
